target.or.test.system: human p70S6 kinase (p70S6K, kinase domain residues 1-421, T412E mutation) (Homo sapiens, UniProt P23443, T412E)
Construct: human p70S6 kinase domainresidues 1-421, containing a T412E mutation
Sequence (P23443 1-421 T412E): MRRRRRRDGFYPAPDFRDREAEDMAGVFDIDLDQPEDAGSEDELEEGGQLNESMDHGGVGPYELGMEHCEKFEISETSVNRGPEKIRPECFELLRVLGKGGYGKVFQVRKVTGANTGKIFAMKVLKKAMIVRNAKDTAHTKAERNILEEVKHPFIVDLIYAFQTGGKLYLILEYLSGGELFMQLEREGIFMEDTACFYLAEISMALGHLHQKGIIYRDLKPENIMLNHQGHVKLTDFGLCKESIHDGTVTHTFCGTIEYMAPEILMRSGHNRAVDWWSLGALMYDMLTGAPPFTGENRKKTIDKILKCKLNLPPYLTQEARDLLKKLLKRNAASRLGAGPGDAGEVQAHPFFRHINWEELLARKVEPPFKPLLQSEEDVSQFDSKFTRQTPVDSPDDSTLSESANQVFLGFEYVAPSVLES
experiment: p70S6 kinase assay, Luciferase-Coupled Chemiluminescent Kinase assay (LCCA)
condition.set: 5 μM ATP, 12 nM p70S6K; read-out: p70S6K inhibition IC50
Attribute: IC50

molecule=Clc1c2ccccc2c(CN2CCN(c3ncnc4[nH]nc(Br)c34)CC2)c2ccccc12 readout_value="500 to 2000 nM"
molecule="CN(C)CCNC(=O)C(c1ccc(Cl)cc1)N1CCN(c2ncnc3[nH]nc(Br)c23)CC1=O (stereo not drawn)" readout_value="< 50 nM"

Fill in the blank: the reported IC50 of `COC(=O)c1ccc(CN2CCN(c3ncnc4[nH]nc(Br)c34)CC2)cc1` is ____. < 50 nM

Then `CN(C)c1ccc(CN2CCN(c3ncnc4[nH]nc(Br)c34)CC2)cc1` ? < 50 nM

Then `Fc1cc(C(F)(F)F)ccc1CN1CCN(c2ncnc3[nH]nc(Br)c23)CC1` ? < 50 nM

Then `O=C(CN1CCN(c2ncnc3[nH]nc(Br)c23)CC1)Nc1ccccn1` ? 50 to 500 nM

---

Attribute: IC50
target.or.test.system: human p70S6 kinase (p70S6K, kinase domain residues 1-421, T412E mutation) (Homo sapiens, UniProt P23443, T412E)
Construct: human p70S6 kinase domainresidues 1-421, containing a T412E mutation
experiment: p70S6 kinase assay, Luciferase-Coupled Chemiluminescent Kinase assay (LCCA)
condition.set: 5 μM ATP, 12 nM p70S6K; read-out: p70S6K inhibition IC50

Answered examples (8):
compound="CN(C)CCOC(c1ccc(Cl)cc1)C1CCN(c2ncnc3[nH]nc(Br)c23)CC1 (stereo not drawn)" measured_quantity=IC50 readout_value="< 50 nM"
compound="CN(C)CCOCC1CN(c2ncnc3[nH]nc(Br)c23)CCN1Cc1ccc(Cl)cc1 (stereo not drawn)" measured_quantity=IC50 readout_value="> 2000 nM"
compound=CC(C)(C)c1ccc(CN2CCN(c3ncnc4[nH]nc(Br)c34)CC2)cc1 measured_quantity=IC50 readout_value="< 50 nM"
compound=CN(C)CCNC(=O)C(=O)N(c1ccc(Cl)cc1)C1CCN(c2ncnc3[nH]nc(Br)c23)CC1 measured_quantity=IC50 readout_value="< 50 nM"
compound=C=CCCC(=O)N(c1ccc(Cl)cc1)C1CCN(c2ncnc3[nH]nc(Br)c23)CC1 measured_quantity=IC50 readout_value="< 50 nM"
compound=O=[N+]([O-])c1cc(CN2CCN(c3ncnc4[nH]nc(Br)c34)CC2)ccc1Oc1ccc(F)cc1 measured_quantity=IC50 readout_value="500 to 2000 nM"
compound="Brc1n[nH]c2ncnc(N3CCN(C4CCCCc5ccccc54)CC3)c12 (stereo not drawn)" measured_quantity=IC50 readout_value="> 2000 nM"
compound=CN(C)CCO[C@@H](c1ccc(Cl)c(F)c1)C1CCN(c2ncnc3[nH]nc(Br)c23)CC1 measured_quantity=IC50 readout_value="< 50 nM"

Continue with the next compound.
Fill in the blank: the reported IC50 of `COc1cc(OC)nc(CN2CCN(c3ncnc4[nH]nc(Br)c34)CC2)n1` is ____. 500 to 2000 nM

Where these numbers come from: patent US7994172B2
